Plant response rating, Ducksalad reference
# System: duck salad (Heteranthera limosa)
# ASSAY PROCEDURE: Test C flooded paddy test
# Format: in vivo
# RUN PARAMETERS: flooded paddy test, Rate 62 g/ha; scale 0 to 100 (0 no effect, 100 complete control)

COMPOUND | Plant response rating, Ducksalad
CCC(C)c1ccn(C2SCN(c3cccc(OC(F)(F)F)c3)C2=O)n1 (stereo not drawn) | 90
CC1(c2ccn(C3OCN(c4cccc(C(F)(F)F)c4)C3=O)n2)CC1 (stereo not drawn) | 0
O=C1C(n2ccc(C3CCC3)n2)SCN1c1cccc(C(F)(F)F)c1 (stereo not drawn) | 20
CCOc1cc(N2CCC(n3ccc(C(C)(C)C)n3)C2=O)ccc1C (stereo not drawn) | 0
CCCCC(C)c1ccn(C2OCN(c3cccc(OC(F)(F)F)c3)C2=O)n1 (stereo not drawn) | 0
CCCC(C)c1ccn(C2OCN(c3cccc(C(F)(F)F)c3)C2=O)n1 (stereo not drawn) | 0
CCCCC(CCCC)c1ccn(C2OCN(c3cccc(OC(F)(F)F)c3)C2=O)n1 (stereo not drawn) | 0
CCCCC(CCCC)c1ccn(C2SCN(c3cccc(C(F)(F)F)c3)C2=O)n1 (stereo not drawn) | 0
CCC(C)c1ccn(C2OCN(c3cccc(C(F)(F)F)c3)C2=O)n1 (stereo not drawn) | 60

Origin of measurements: patent US7138361B2
